Origin of values: patent US20090035322A1

Biological target: T1, mutant human CD20 #7 (Y77F, N163D) (human, UniProt P11836 1-297)
T1 construct: Stably expressed on MG87 cells
T1 chain: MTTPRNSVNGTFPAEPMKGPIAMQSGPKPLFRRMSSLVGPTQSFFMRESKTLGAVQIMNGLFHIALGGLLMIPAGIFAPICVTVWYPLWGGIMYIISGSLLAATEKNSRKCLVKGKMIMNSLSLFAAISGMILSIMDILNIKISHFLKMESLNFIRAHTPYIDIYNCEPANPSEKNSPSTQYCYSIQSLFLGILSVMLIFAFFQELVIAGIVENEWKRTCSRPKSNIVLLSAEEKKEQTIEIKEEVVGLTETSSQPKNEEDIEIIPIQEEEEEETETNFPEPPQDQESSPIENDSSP
Assay: FACS, mutant-hCD20 MG87 cells; 100%=best antibody
measured-endpoint: Percent of Binding to Mutant Human CD20

1) 8G6-5 (antibody, V domains shown, Fully human IgG, constant region not specified; also called 8G6-5N) VH: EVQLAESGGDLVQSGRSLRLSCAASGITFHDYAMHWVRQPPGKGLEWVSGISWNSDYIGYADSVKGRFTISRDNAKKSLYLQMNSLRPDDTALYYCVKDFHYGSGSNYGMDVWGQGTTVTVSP VL: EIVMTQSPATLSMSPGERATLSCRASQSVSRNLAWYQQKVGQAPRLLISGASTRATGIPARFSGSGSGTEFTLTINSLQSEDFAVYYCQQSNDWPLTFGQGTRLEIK	1%
2) 2F2 (antibody, V domains shown) VH: EVQLVESGGGLVQPGRSLRLSCAASGFTFNDYAMHWVRQAPGKGLEWVSTISWNSGSIGYADSVKGRFTISRDNAKKSLYLQMNSLRAEDTALYYCAKDIQYGNYYYGMDVWGQGTTVTVSS VL: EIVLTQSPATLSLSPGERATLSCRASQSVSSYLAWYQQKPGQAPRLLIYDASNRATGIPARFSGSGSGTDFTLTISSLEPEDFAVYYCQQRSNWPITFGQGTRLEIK	1%
3) 10F2-13 (antibody, V domains shown, Fully human IgG, constant region not specified; also called 10F2-13N; ab 10F2-13) VH: EEQLVESGGDLVQPGRSLRLSCAASGFTFHDYTMHWVRQAPGKGLEWVSGISWNSGSLGYADSVKGRFTISRDNAKKSLYLQMNSLRAEDTALYYCAKDPSYGSGSYHSYYGMDVWGQGTTVTVSS VL: EIVLTQSPATLSLSPGERATLSCWASQSISRYLVWYQQKCGQAPRLLIYEASKRATGIPVRFSGSGSGTDFTLTISSLESEDFAVYYCQQRFNWPLTFGGGTKVEIK	2%
4) 2B7-7 (antibody, V domains shown, Fully human IgG, constant region not specified; also called 2B7-7N) VH: EVQLVESGGGLVQPGRSLRLSCAASGFTFRDYTMHWVRQGPGKGLEWVSGISWNSDYIGYADSVKGRFTISRDNAKNSLYLQMNSLRVEDTALYYCAKLSGTYRDYFYGVDVWGQGTTVTVSS VL: EIVLTQSPATLSLSPGERAALSCRASQSVSNYLAWYQQKPGQAPRLLIYDASNRATGIPARFSGSGSGTDFTLTISSLEPEDFAVYYCQQRSNWPLTFGGGTKVEIR	2%
5) 10E3-17 (antibody, V domains shown, Fully human IgG, constant region not specified; also called 10E3-17N) VH: EVQLVESGGGLVQPGRSLRLSCAASGFTFRDYAMHWVRQVPGKGLEWVSGISWNRGTIGYADSVKGRFTISRDNAKNSLFLQMNSLRADDTALYYCAKDHYYGSGSPYGMDVWGQGTTVTVSS VL: EIVLTQSPATLALSPGERATLSCRASQSVSKYLAWYQQKPGQAPRLLIYDASKRVTGIPGRLSGSGSGTDFTLTISSLEPEDFALYYCQQSSNWPITFGQGTRVEIK	1%
